Values compiled from patent US20150139990A1.

Below is a list of entries, each paired with its recorded relative binding affinity value.
SUBJECT OF TEST: T1, human CD81 mutant A164V (human, UniProt P60033 1-236, limits assumed)
T1 construct: as m30; not shown: C-terminal V5 and 6xHis tags
T1 sequence: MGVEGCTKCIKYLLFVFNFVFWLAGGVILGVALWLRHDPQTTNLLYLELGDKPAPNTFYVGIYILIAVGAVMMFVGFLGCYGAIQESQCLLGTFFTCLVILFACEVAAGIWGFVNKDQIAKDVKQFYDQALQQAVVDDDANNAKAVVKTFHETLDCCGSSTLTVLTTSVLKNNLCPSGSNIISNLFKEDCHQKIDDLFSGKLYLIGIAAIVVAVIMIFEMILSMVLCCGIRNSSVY
TEST PROTOCOL: ELISA
EXPERIMENTAL ENDPOINT: relative binding affinity

{"BINDER": "002-D10 (antibody, human IgG4 S228P, lambda, V domains shown, IgG4 S228P) VH: EVQLLESGGGLVQPGGSLRLSCAASGFTFSSNYMSWVRQAPGKGPEWVSYISSSSTYTDYADSVKGRFTISRDNSKNTLYLQMNSLRAEDTAVYYCARYSYGRDNFDYWGQGTLVTVSS VL: QSVLTQPSSASGTPGQRVTISCTGSTSNIGAGYDTHWYQQLPGTAPKLLIYGNSNRPSGVPDRFSGSKSGTSASLAVSGLRSEDEAEYYCQSYDTNLSGWVFGGGTKLTVLG", "EXPERIMENTAL ENDPOINT": "relative binding affinity", "RESULT": "< 20%"}
{"BINDER": "002-A07 S115G (antibody, human IgG4 S228P, lambda, V domains shown, IgG4 S228P; glycosylation site mutant of 002-A07 VL) VH: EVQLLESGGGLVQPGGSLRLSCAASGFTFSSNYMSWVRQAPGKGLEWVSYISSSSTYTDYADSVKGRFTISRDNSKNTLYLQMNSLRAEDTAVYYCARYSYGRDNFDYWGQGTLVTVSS VL: QSVLTQPPSASGTPGQRVTISCTGSTSNIGAGYDTHWYQQLPGTAPKLLIYGNSNRPSGVPDRFSGSKSGTSASLAISGLRSEDEADYYCQSYDTNLGVWVFGGGTKLTVLG", "EXPERIMENTAL ENDPOINT": "relative binding affinity", "RESULT": "< 20%"}
{"BINDER": "002-F07 (antibody, human IgG4 S228P, lambda, V domains shown, IgG4 S228P) VH: EVQLLESGGGLVQPGGSLRLSCAASGFTFSSNYMSWVRQAPGKGLEWVSYISSSSTYTDYADSVKGRFTISRDNSKNTLYLQMNSLRAEDTAVYYCARYSYGRDSFDYWGQGTLVTVSS VL: QSVLTQPFSASGTPGQRVTISCTGSTSNIGAGFDTHWYQQLPGTAPKLLIYGNSNRPSGVPDRFSGSKSGTTASLAISGLRSEDEADYYCQSYDTNLSVWVFGGGTKLTVLG", "EXPERIMENTAL ENDPOINT": "relative binding affinity", "RESULT": "< 20%"}
